These entries and their values trace back to patent US8633245B2.

Target: recombinant human PAI-1 (Homo sapiens, UniProt P05121)
Construct: purchased Molecular Innovations, Inc
Sequence (P05121 24-402): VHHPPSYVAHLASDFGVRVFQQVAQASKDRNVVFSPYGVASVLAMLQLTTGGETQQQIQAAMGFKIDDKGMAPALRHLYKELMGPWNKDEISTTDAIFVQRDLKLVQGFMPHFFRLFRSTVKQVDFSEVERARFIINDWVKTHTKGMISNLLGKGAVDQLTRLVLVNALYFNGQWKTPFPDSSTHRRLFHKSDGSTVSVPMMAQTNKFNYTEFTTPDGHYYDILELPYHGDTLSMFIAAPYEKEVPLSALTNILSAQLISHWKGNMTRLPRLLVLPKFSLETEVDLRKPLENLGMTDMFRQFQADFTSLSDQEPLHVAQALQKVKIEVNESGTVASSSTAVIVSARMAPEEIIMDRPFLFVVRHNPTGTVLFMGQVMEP
Experiment: Test Example 2: human PAI-1 inhibitory activity (tPA fluorogenic substrate, pH 7.4 HEPES buffer)
Assay type: biochemical
Conditions: human PAI-1; compound concentration 3 μM
Recorded Inhibition Rate of PAI-1 Activity (%) by entry
Number in %, nothing else.

Worked examples, 2 compounds total:
| Compound | Recorded measurement |
| --- | --- |
| CCCCC(Oc1cc(Oc2ccc(C(C)(C)C)cc2)cc(-c2ccc(OC(F)(F)F)cc2)c1)C(=O)O (centres unmarked) | 97 |
| CC(Oc1cc(-c2ccc(OC(F)(F)F)cc2)ccc1CCC(=O)O)c1ccccc1 (centres unmarked) | 83 |

Please give the measured Inhibition Rate of PAI-1 Activity (%) for this compound: `CC(C)(C)c1ccc(-c2ccc(OCC(=O)O)c(Oc3cccc(C(C)(C)C)c3)c2)cc1`
98

What do we get for `CCCCOc1ccc(-c2ccc(OCC(=O)O)c(Oc3ccc(C(C)(C)C)cc3)c2)cc1` ?
97

###

Recorded Inhibition Rate of PAI-1 Activity (%) by entry
Target: recombinant human PAI-1 (Homo sapiens, UniProt P05121)
Construct: purchased Molecular Innovations, Inc
Assay: Test Example 2: human PAI-1 inhibitory activity (tPA fluorogenic substrate, pH 7.4 HEPES buffer)
Format: biochemical
Details: human PAI-1; compound concentration 0.1 μM
Number in %, nothing else.

Worked examples, 10 compounds total:
| Compound | Unit info | Inhibition Rate of PAI-1 Activity (%) |
| --- | --- | --- |
| CC(C)(C)c1ccc(Oc2cc(Oc3ccc(OC(F)(F)F)cc3)ccc2OCC(=O)O)cc1 | % | 0 |
| CC(C)(C)c1ccc(Oc2cc(-c3cccc(OC(F)(F)F)c3)ccc2CCC(=O)O)cc1 | % | 13 |
| CCCCCOc1ccc(-c2ccc(OC(F)(F)F)cc2)cc1CN(C(=O)C(=O)O)c1ccc(C(C)(C)C)cc1 | % | 6 |
| O=C(O)CCc1cc(-c2ccc(OC(F)(F)F)cc2)ccc1OCCCCCOc1ccc(-c2ccc(OC(F)(F)F)cc2)cc1CCC(=O)O | % | 0 |
| CCCCC(CC(=O)O)c1cc(-c2ccc(OC(F)(F)F)cc2)ccc1Oc1ccc(C(C)(C)C)cc1 (stereo not drawn) | % | 12 |
| CC(C)(C)c1cccc(Oc2cc(-c3ccc(OC(F)(F)F)cc3)ccc2OCC(=O)O)c1 | % | 3 |
| CCCCCOc1cc(-c2ccc(OC(F)(F)F)cc2)cc(OCCCCC)c1OCC(=O)O | % | 0 |
| O=C(O)C(=O)N(CCCCc1ccccc1)c1cc(-c2ccc(OC(F)(F)F)cc2)ccc1OC1CCCCCC1 | % | 12 |
| CC(C)(C)c1cccc(Oc2cc(-c3cccc(OC(F)(F)F)c3)ccc2/C=C/C(=O)O)c1 | % | 21 |
| CC(C)(C)c1ccc(Oc2cc(-c3ccc(OC(F)(F)F)cc3)ccc2N(CCCCc2ccccc2)C(=O)C(=O)O)cc1 | % | 14 |

Please give the measured Inhibition Rate of PAI-1 Activity (%) for this compound: `O=C(O)CCCCCCCCOc1ccc(-c2ccc(OC(F)(F)F)cc2)cc1N(CCCCc1ccccc1)C(=O)C(=O)O`
4

What do we get for `CCCCCOc1ccc(-c2ccc(OCC(=O)O)c(Oc3ccc(C(C)(C)C)cc3)c2)cc1` ?
0

What do we get for `CCCCCOc1ccc(-c2cc(C)cc(C)c2)cc1N(CCCCc1ccccc1)C(=O)C(=O)O` ?
3

What do we get for `O=C(O)C(=O)N(Cc1ccc(-c2ccc(OC(F)(F)F)cc2)cc1)c1ccccc1-c1ccccc1` ?
0

What do we get for `CC(C)(C)c1ccc(Oc2cc(-c3cccc(OC(F)(F)F)c3)ccc2/C=C/C(=O)O)cc1` ?
13
